Biological target: human TMPRSS2 (Homo sapiens)
Sequence (O15393 whole entry): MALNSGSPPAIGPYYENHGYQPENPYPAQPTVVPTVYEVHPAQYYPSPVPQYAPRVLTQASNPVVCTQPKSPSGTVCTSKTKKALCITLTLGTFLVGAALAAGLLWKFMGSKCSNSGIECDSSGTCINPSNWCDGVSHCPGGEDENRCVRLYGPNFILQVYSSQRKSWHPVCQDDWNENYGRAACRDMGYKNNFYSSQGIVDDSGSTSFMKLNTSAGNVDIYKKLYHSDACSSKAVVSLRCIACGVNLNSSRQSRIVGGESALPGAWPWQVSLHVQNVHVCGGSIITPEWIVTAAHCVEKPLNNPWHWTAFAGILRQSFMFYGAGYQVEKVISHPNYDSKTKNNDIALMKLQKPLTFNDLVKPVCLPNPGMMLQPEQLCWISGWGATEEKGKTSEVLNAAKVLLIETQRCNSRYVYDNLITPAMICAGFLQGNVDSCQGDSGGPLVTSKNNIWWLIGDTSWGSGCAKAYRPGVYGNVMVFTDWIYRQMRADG
Test: cell-based
Conditions: Vero C1008; 10 nM compound, 24 h, vs untreated/vehicle TMPRSS2-expressing Vero E6 cells; read-out: inhibition of TMPRSS2 activity (reduction of substrate proteolysis)
Structures can show the parent of a compound that is named as a salt.
Readout: inhibition at 0.01 µM (%)

- CN(C)C(=O)COC(=O)Cc1ccc(OC(=O)c2ccc(NC(=N)N)cc2)cc1 [Camostat mesylate, reference compound]: 56
- N=C(N)NCCCCC(=O)N[C@@H](CCC(=O)O)C(=O)N[C@@H](Cc1ccccc1)C(=O)N[C@@H](CCCNC(=N)N)C(=O)c1nc2ccccc2s1: 84
- CC(=O)NC(CCC(N)=O)C(=O)NC(CC1CCCCC1)C(=O)NC(CCCNC(=N)N)C(=O)c1nc2ccccc2s1 (stereo not drawn): 8

----------
Quick reference for viability at 24 h, 1000 µM among some molecules
Experiment: Cytotoxicity CC50 in Calu-3 lung epithelial cells
Format: cell-based, human
Conditions: human, Calu-3 cells, Log [inhibitor] -3.00; read-out: % of Viability, Average (n=2)
Readout: viability at 24 h, 1000 µM (%)

- CS(=O)(=O)N[C@@H](CCC(N)=O)C(=O)N[C@@H](Cc1ccccc1)C(=O)N[C@@H](CCCNC(=N)N)C(=O)c1nc2ccccc2s1 [Compound N-385]: 80.5
- N=C(N)NCCCCC(=O)NC(CCC(N)=O)C(=O)NC(Cc1ccccc1)C(=O)NC(CCCNC(=N)N)C(=O)c1nc2ccccc2s1 (centres unmarked) [Compound N-0130, (H)RQFR-kbt]: 86.5
